Assay: Stability of polymorphs exposed to the air at room temperature for 12 months, purity by HPLC
Type: physicochemical
Conditions: before exposure
Readout kind: Original Purity (%)
Give just the numeric value; % need not be written.

Exam item: Which Original Purity value is on record for N#C/N=C(\NCCCCCCOc1ccc(Cl)cc1)Nc1ccncc1 [Polymorph III] ?
Marked response: 97.83

Exam item: Name the reported Original Purity value associated with the compound N#C/N=C(\NCCCCCCOc1ccc(Cl)cc1)Nc1ccncc1 [Polymorph VI]
Marked response: 99.55

Exam item: Please give the measured Original Purity for this compound: N#C/N=C(\NCCCCCCOc1ccc(Cl)cc1)Nc1ccncc1 [Polymorph IV]
Marked response: 99.59

Exam item: What Original Purity value was documented for this compound, N#C/N=C(\NCCCCCCOc1ccc(Cl)cc1)Nc1ccncc1 [Polymorph I] ?
Marked response: 98.01

Exam item: So what does the record say about Original Purity for N#C/N=C(\NCCCCCCOc1ccc(Cl)cc1)Nc1ccncc1 [Polymorph II] ?
Marked response: 99.45

Exam item: Reported Original Purity for N#C/N=C(\NCCCCCCOc1ccc(Cl)cc1)Nc1ccncc1 [Polymorph V] : what is it?
Marked response: 95.82
